measured_metric: IC50

The value of IC50 recorded for CCc1nc2ccc(C3CCN(C4=NCC(CO)O4)CC3)cn2c1N(C)c1nc(-c2ccc(F)cc2)cs1 (stereo not shown) when tested on hENPP2 (Homo sapiens (Human)) reads 500 to 1000 nM

Each recorded value in this set is attributed to patent US10526329B2.
